Hi there, I'd appreciate the recorded viability at 28.5 h, 10 µM for every entry that follows.
Assay: in vitro
Settings: human, hela cells, % viability
The response must be a number in % with no trailing unit.

## Task Looking for the measured viability at 28.5 h, 10 µM of `CCOC(=O)c1c(NC(=O)CNCc2cccnc2)sc2c1CCCC2` , can you help?
## Result 94

## Task Looking for the measured viability at 28.5 h, 10 µM of `CCCNC(=O)CN1CCC(NC(=O)Cn2cc(Br)ccc2=O)CC1` , can you help?
## Result 94

## Task Looking for the measured viability at 28.5 h, 10 µM of `CCn1ncc(CN2CCN(C(=S)Nc3ccccc3C(F)(F)F)CC2)c1C` , can you help?
## Result 96.2

## Task Looking for the measured viability at 28.5 h, 10 µM of Cn1cncc1CN1CCCC(c2cc3cccnc3[nH]2)C1 (centres unmarked) , can you help?
## Result 98.4

## Task Looking for the measured viability at 28.5 h, 10 µM of `CCc1cc(CNC(=O)c2ccc(C)c(-n3nc(C)cc3C)c2)on1` , can you help?
## Result 91.7

----------
Test: in vitro
Design: Viability of infected HeLa host cells, resazurin conversion, bulk resorufin fluorescence relative to DMSO
Settings: human, hela cells; bulk resorufin, mean of 2
measurementKind: viability at 28.5 h, 5 µM (%)
The response must be a number in % with no trailing unit.

## Task Looking for the measured viability at 28.5 h, 5 µM of Cc1cc(NS(=O)(=O)c2ccc(Nc3nc(-c4ccccn4)cs3)cc2)no1 [CBK263302B] , can you help?
## Result 93.6

## Task Looking for the measured viability at 28.5 h, 5 µM of CC(C)c1ccc(S(=O)(=O)Nc2cccc(SC(F)(F)F)c2)cc1 [CBK044581] , can you help?
## Result 95.7

## Task Looking for the measured viability at 28.5 h, 5 µM of OCC1(CNc2ncc(F)c(N3CCCC3)n2)CCOCC1 [CBK306647] , can you help?
## Result 93.8

## Task Looking for the measured viability at 28.5 h, 5 µM of Cn1c(=O)c2c(ncn2Cc2ccccc2)n(C)c1=O [CBK133402] , can you help?
## Result 110

## Task Looking for the measured viability at 28.5 h, 5 µM of CC(C)(C)c1ccc(N(C2CCNCC2)S(=O)(=O)c2cccc(C(F)(F)F)c2)cc1 [CBK165056T] , can you help?
## Result 107

## Task Looking for the measured viability at 28.5 h, 5 µM of N#CCCCN1CCC(Oc2cncc(OCc3ccc(Cl)c(Cl)c3)n2)C1 (stereo not drawn) [CBK084436] , can you help?
## Result 102

## Task Looking for the measured viability at 28.5 h, 5 µM of CNC(=S)N1CCN(c2nsc3ccccc23)CC1 [CBK288515] , can you help?
## Result 96.2

## Task Looking for the measured viability at 28.5 h, 5 µM of CC(=O)Nc1ccc(-c2cccc(COC3CCN(C(=O)c4ccc(OC(C)C)cc4)CC3)c2)cc1 [CBK149485] , can you help?
## Result 92.4

## Task Looking for the measured viability at 28.5 h, 5 µM of O=C(NCCCn1ccnc1)c1cc(-c2ccc(Br)cc2)nc2ccccc12 [CBK262645] , can you help?
## Result 107

----------
Assay: in vitro
Settings: human, hela cells, % viability
measurementKind: viability at 28.5 h, 10 µM (%)
The response must be a number in % with no trailing unit.

## Task Looking for the measured viability at 28.5 h, 10 µM of `CSCC[C@@H]1CN2CCC[C@H]2CN1Cc1cnc(C)n1C` , can you help?
## Result 109

## Task Looking for the measured viability at 28.5 h, 10 µM of COc1ccc(Br)cc1/C=N/NC(=O)CC1C(=O)NN=C1C (stereo not drawn) , can you help?
## Result 99.2

## Task Looking for the measured viability at 28.5 h, 10 µM of `CN(C(=O)CCC(=O)O)c1ccccc1C(=O)O` , can you help?
## Result 104

## Task Looking for the measured viability at 28.5 h, 10 µM of Cc1cc(O)ccc1C(CC(=O)O)c1ccccc1 (stereo not drawn) , can you help?
## Result 100

## Task Looking for the measured viability at 28.5 h, 10 µM of CC(Oc1ccccc1)C(=O)Nc1ccc(-c2csc(-c3ccccc3)n2)cc1 (stereo not drawn) , can you help?
## Result 103

## Task Looking for the measured viability at 28.5 h, 10 µM of `COC(=O)c1sccc1NC(=O)c1ccc(F)cc1Cl` , can you help?
## Result 88.2

## Task Looking for the measured viability at 28.5 h, 10 µM of COc1ccccc1-c1cccc(C2CCCN(C(=O)CCCc3ccccc3)C2)n1 (stereo not drawn) , can you help?
## Result 100

## Task Looking for the measured viability at 28.5 h, 10 µM of `O=S(=O)(Cc1ccc(Cl)cc1)N1CCN(Cc2ccc3c(c2)OCO3)CC1` , can you help?
## Result 101

## Task Looking for the measured viability at 28.5 h, 10 µM of `Cn1cccc1C(=O)N[C@H]1CCN2C(=O)N(c3ccc(OC(F)(F)F)cc3)C(=O)[C@@H]2C1` , can you help?
## Result 94.7

----------
Experiment: in vitro
Conditions: human, hela cells, % viability
measurementKind: viability at 28.5 h, 10 µM

## Task Looking for the measured viability at 28.5 h, 10 µM of CCC1CCCCN1S(=O)(=O)c1cccc2c(S(=O)(=O)N3CCCCC3CC)cccc12 (centres unmarked) , can you help?
## Result 92.8%

## Task Looking for the measured viability at 28.5 h, 10 µM of COc1ccc2c(c1)CCC(c1ccccc1)=C2c1ccc(OCC(O)CN)cc1 (centres unmarked) [CBK015723C] , can you help?
## Result 70.5%

## Task Looking for the measured viability at 28.5 h, 10 µM of O=C(NC(c1ccc(Cl)cc1)c1cccnc1)C1CCN(C(=O)C2CC2)CC1 (centres unmarked) , can you help?
## Result 90.4%

## Task Looking for the measured viability at 28.5 h, 10 µM of `Cc1ccc(NC(=O)/C=C/c2ccc3c(c2)OCO3)c(NC(=O)/C=C/c2ccc3c(c2)OCO3)c1` , can you help?
## Result 114%

## Task Looking for the measured viability at 28.5 h, 10 µM of O=S1(=O)CCC(SCc2ccccc2)C1 (centres unmarked) , can you help?
## Result 89.1%

## Task Looking for the measured viability at 28.5 h, 10 µM of `COc1cc(CNC(=O)N(CCC#N)C2CCCCC2)cc(OC)c1OC` , can you help?
## Result 98.1%

## Task Looking for the measured viability at 28.5 h, 10 µM of `COC(=O)C1(Cc2cc(-c3cccc(F)c3)no2)CCOCC1` , can you help?
## Result 95.8%

## Task Looking for the measured viability at 28.5 h, 10 µM of `O=C(Nc1cccc2cc[nH]c12)c1cc(F)c(Cl)cc1F` , can you help?
## Result 82.4%

## Task Looking for the measured viability at 28.5 h, 10 µM of `CCNC(=O)Nc1nc2cccnc2cc1-c1ccccc1` , can you help?
## Result 101%

## Task Looking for the measured viability at 28.5 h, 10 µM of `CS(=O)(=O)N(CC(=O)NCc1ccccn1)c1ccc2c(c1)OCO2` , can you help?
## Result 87.2%

## Task Looking for the measured viability at 28.5 h, 10 µM of `CCc1cc(C(=O)N2CCC(Oc3ccc(F)cc3)CC2)n(C)n1` , can you help?
## Result 86.5%

## Task Looking for the measured viability at 28.5 h, 10 µM of `O=C(O)c1ccc(N2C(=O)/C(=C/c3c[nH]c4ccccc34)SC2=S)cc1` , can you help?
## Result 90.4%

## Task Looking for the measured viability at 28.5 h, 10 µM of `CC1CCN(S(=O)(=O)c2ccc(NC(=O)COc3ccc4ccccc4c3)cc2)CC1` , can you help?
## Result 96.7%

## Task Looking for the measured viability at 28.5 h, 10 µM of `CC(C)(C)OC(=O)N1CCC(OCc2cn(-c3ccc(S(C)(=O)=O)cc3)nn2)CC1` , can you help?
## Result 98.1%

## Task Looking for the measured viability at 28.5 h, 10 µM of `Cc1cnc2[nH]c(C3CCN(C(=O)c4cnn(C)c4C)CC3)cc2c1` , can you help?
## Result 88.8%

## Task Looking for the measured viability at 28.5 h, 10 µM of Cc1nn(C)c(Cl)c1CN1CCOC(c2ccccc2)C1 (centres unmarked) , can you help?
## Result 83.2%

## Task Looking for the measured viability at 28.5 h, 10 µM of `CC(=O)Nc1ccc(S(=O)(=O)N2CCN(S(=O)(=O)c3ccc(C)cc3)CC2)cc1` , can you help?
## Result 101%

## Task Looking for the measured viability at 28.5 h, 10 µM of `NCCNC(=O)c1cc2cc(OC(F)(F)F)ccc2[nH]1` , can you help?
## Result 118%

## Task Looking for the measured viability at 28.5 h, 10 µM of `Cc1ccc2ncc(C(=O)Nc3ccc(F)cc3F)c(=O)n2c1` , can you help?
## Result 95.6%

## Task Looking for the measured viability at 28.5 h, 10 µM of `O=C(O)CNC(=O)[C@H]1CC[C@H](Cn2cnc3ccccc3c2=O)CC1` , can you help?
## Result 97%

## Task Looking for the measured viability at 28.5 h, 10 µM of O=S(=O)(O)CCCSc1nc2ccccc2o1 [CBK026507N] , can you help?
## Result 97.2%

## Task Looking for the measured viability at 28.5 h, 10 µM of Cc1ccc(COC(CN2CCCCCC2)CN2CCCCCC2)cc1 [CBK278236C] , can you help?
## Result 100%

## Task Looking for the measured viability at 28.5 h, 10 µM of `CCCCCc1nc(N)c(-c2cccc(Br)c2)c(C#N)c1CCCC` , can you help?
## Result 118%

## Task Looking for the measured viability at 28.5 h, 10 µM of COc1ccc(N2CCN(CC(O)c3c[nH]c4cc(OC)ccc34)CC2)cc1 (centres unmarked) , can you help?
## Result 96.1%

## Task Looking for the measured viability at 28.5 h, 10 µM of `[O-][n+]1cc(-c2ccccc2)[n+]([O-])c2c1CCCC2` , can you help?
## Result 98.7%

## Task Looking for the measured viability at 28.5 h, 10 µM of CC(N)C1CCCCN1S(=O)(=O)c1ccc(OCc2ncnn2C)cc1 (centres unmarked) [CBK304272C] , can you help?
## Result 94.3%

## Task Looking for the measured viability at 28.5 h, 10 µM of `CCOc1ccc(-c2cc(C(=O)NCc3cc(OC)ccc3OC)n[nH]2)cc1` , can you help?
## Result 85.7%

## Task Looking for the measured viability at 28.5 h, 10 µM of `Cc1n[nH]c(=O)c2c(C)noc12` , can you help?
## Result 101%

## Task Looking for the measured viability at 28.5 h, 10 µM of `C=CCC1(CC=C)CCN1C(=O)c1cccc(N2CCCC2=O)c1` , can you help?
## Result 85%

## Task Looking for the measured viability at 28.5 h, 10 µM of `Cc1nn(C)cc1C(=O)O[C@H]1C[C@@H](c2ccc(F)cc2)N(C)C1=O` , can you help?
## Result 103%

## Task Looking for the measured viability at 28.5 h, 10 µM of O=C(O)C(c1c[nH]c2ccccc12)N1CCN(Cc2ccncc2)CC1 (centres unmarked) , can you help?
## Result 76.2%

## Task Looking for the measured viability at 28.5 h, 10 µM of Cc1nc(N)nc(NCC2CCN(C3CC3)C2)c1Cl (centres unmarked) , can you help?
## Result 85.9%

## Task Looking for the measured viability at 28.5 h, 10 µM of `NC(=O)NS(=O)(=O)c1ccc(NC(=S)NC(=O)c2ccco2)cc1` , can you help?
## Result 117%

## Task Looking for the measured viability at 28.5 h, 10 µM of `CCn1cc(CN(C)Cc2ccon2)c2cc(C(=O)O)ncc21` , can you help?
## Result 84.7%

## Task Looking for the measured viability at 28.5 h, 10 µM of `Cc1[nH]c2ccccc2c1/C=N/c1ccc(/N=C/c2c(C)[nH]c3ccccc23)cc1` , can you help?
## Result 83.4%

## Task Looking for the measured viability at 28.5 h, 10 µM of CC(=O)Nc1ccc(CN(CCO)C2CCc3ccccc32)cc1 (centres unmarked) , can you help?
## Result 93.2%

## Task Looking for the measured viability at 28.5 h, 10 µM of O=C1CCC(C(=O)N2CC3(CCCC3)c3c(F)cccc32)CN1 (centres unmarked) , can you help?
## Result 85.7%

## Task Looking for the measured viability at 28.5 h, 10 µM of O=C(NCc1ccc(OC2CCNCC2)cc1)c1coc2c1C(=O)CCC2 [CBK038944T] , can you help?
## Result 101%
